- System: LXRa:RXRa (NR concentration 270 nM, RXRa partner concentration 90 nM)
- measurement description: PBM binding z-score (relative to random genomic background probes); higher = stronger binding; sequences stand for … in GC…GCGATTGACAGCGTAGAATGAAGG
Would you please tag the item Satisfied when its PBM binding z-score is 1 or above, and Not satisfied when it is below?

Test whether the sequence "TCATATAGGTAAAAGGTGAATGTCGGTGTGGTAA" records PBM binding z-score of 1 or higher.
Satisfied

Test whether the sequence "CCAGACGGGTGAGAAGGTAACTCAGCCTCGATTA" records PBM binding z-score of 1 or higher.
Not satisfied

Test whether the sequence "CCTACTGGGCCAAAAAGGTCATTGTTGCCGATAA" records PBM binding z-score of 1 or higher.
Satisfied

Test whether the sequence "ACTTACGGGTCAACGAGGTTAAAGCACGCGTATA" records PBM binding z-score of 1 or higher.
Satisfied

Test whether the sequence "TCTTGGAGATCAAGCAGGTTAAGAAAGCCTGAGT" records PBM binding z-score of 1 or higher.
Not satisfied

Test whether the sequence "AGAATGAGGTTACCTAAGATCAGGGAAACGCTTG" records PBM binding z-score of 1 or higher.
Satisfied

Test whether the sequence "AGAATGATGTTAAGATCAGGGAAACAGAATACAT" records PBM binding z-score of 1 or higher.
Not satisfied

Test whether the sequence "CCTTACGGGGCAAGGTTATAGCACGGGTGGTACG" records PBM binding z-score of 1 or higher.
Not satisfied

Test whether the sequence "ATCGAAAGGTCGTGAGGTGAGTAGACAGAAAGGC" records PBM binding z-score of 1 or higher.
Satisfied

Test whether the sequence "CCGACTGGGGCACAAAGGTTACCATACCATCCGG" records PBM binding z-score of 1 or higher.
Not satisfied

Test whether the sequence "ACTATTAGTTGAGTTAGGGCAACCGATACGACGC" records PBM binding z-score of 1 or higher.
Not satisfied

Test whether the sequence "TCGAGTAGGTTAGGGGCTTTCAGAATGGCGTCGA" records PBM binding z-score of 1 or higher.
Not satisfied

Test whether the sequence "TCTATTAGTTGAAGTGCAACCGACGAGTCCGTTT" records PBM binding z-score of 1 or higher.
Not satisfied

Test whether the sequence "CAAACTAGGCCACCGGAAGGTCAAAGTCCGCATG" records PBM binding z-score of 1 or higher.
Satisfied

Test whether the sequence "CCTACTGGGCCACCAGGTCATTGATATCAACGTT" records PBM binding z-score of 1 or higher.
Satisfied

Test whether the sequence "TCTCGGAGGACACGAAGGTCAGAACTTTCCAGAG" records PBM binding z-score of 1 or higher.
Satisfied

Test whether the sequence "ATATGTAGGTTATCGGGTCTTTCAGTTTGCGCAT" records PBM binding z-score of 1 or higher.
Satisfied

Test whether the sequence "ATCGAAAGGTCGACGACGTGAGTATACACCGTTT" records PBM binding z-score of 1 or higher.
Satisfied

Test whether the sequence "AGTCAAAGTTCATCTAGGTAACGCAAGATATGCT" records PBM binding z-score of 1 or higher.
Satisfied

Test whether the sequence "TCATATAGGTAATACAGGTGAAAGGCGGCATCTA" records PBM binding z-score of 1 or higher.
Satisfied

Test whether the sequence "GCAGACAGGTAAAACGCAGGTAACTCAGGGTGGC" records PBM binding z-score of 1 or higher.
Not satisfied

Test whether the sequence "GATACAGGGTCAGCCAGAGGCCAGAGTATGGAAA" records PBM binding z-score of 1 or higher.
Satisfied

Test whether the sequence "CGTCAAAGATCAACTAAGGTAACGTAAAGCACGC" records PBM binding z-score of 1 or higher.
Not satisfied

Test whether the sequence "CCTACTGGGCCAAAAAGGTCATTGAGGCCGATAA" records PBM binding z-score of 1 or higher.
Satisfied

Test whether the sequence "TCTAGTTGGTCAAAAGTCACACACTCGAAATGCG" records PBM binding z-score of 1 or higher.
Satisfied

Test whether the sequence "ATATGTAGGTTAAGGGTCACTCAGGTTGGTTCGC" records PBM binding z-score of 1 or higher.
Satisfied

----------
- Test system: FXR:RXRa (NR concentration 270 nM, RXRa partner concentration 90 nM)
- measurement description: PBM binding z-score (relative to random genomic background probes); higher = stronger binding; sequences stand for … in GC…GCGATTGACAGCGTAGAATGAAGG
Can you tell me PBM binding z-score for the items I'm about to list?
Give a plain numeric answer without units written out.

Give its PBM binding z-score value. Item: "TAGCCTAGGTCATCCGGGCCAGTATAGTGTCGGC"
4.52

Give its PBM binding z-score value. Item: "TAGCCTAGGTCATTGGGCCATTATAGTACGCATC"
4.57

Give its PBM binding z-score value. Item: "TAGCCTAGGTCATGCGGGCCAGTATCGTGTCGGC"
3.99

Give its PBM binding z-score value. Item: "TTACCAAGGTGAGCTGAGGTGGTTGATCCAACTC"
-0.284

Give its PBM binding z-score value. Item: "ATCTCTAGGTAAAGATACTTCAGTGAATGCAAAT"
0.262

Give its PBM binding z-score value. Item: "CCTATTAGTTGACCATAGGGGCAACCGAAGCTCG"
0.589

Give its PBM binding z-score value. Item: "TAGCTTAGGTCATTGGGCCAGTATAGTACGCATC"
4.59

Give its PBM binding z-score value. Item: "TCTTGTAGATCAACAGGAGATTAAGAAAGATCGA"
-0.494

Give its PBM binding z-score value. Item: "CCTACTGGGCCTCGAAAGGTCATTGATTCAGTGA"
3.05

Give its PBM binding z-score value. Item: "ATATGTAGGGTATCGGGTCATTCAGTTTGCGCAT"
2.08

Give its PBM binding z-score value. Item: "TTACCCAGGTGAGCTGAGGTCGTTGATCCAACTC"
1.83

Give its PBM binding z-score value. Item: "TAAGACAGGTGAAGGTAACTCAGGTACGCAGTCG"
0.669

----------
- Tested on: RXRa homodimer (NR concentration 180 nM)
- measurement description: PBM binding z-score (relative to random genomic background probes); higher = stronger binding; sequences stand for … in GC…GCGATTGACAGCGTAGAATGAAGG
measured quantity: PBM binding z-score
Give a plain numeric answer without units written out.

Give its PBM binding z-score value. Item: "CAAACTAGTTCACCGGAAGGTCAAAGTCCGCATG"
4.73

Give its PBM binding z-score value. Item: "TCTCGGAGGACACGAAGGGCAGAGCTTTCCAGAG"
-0.0528

Give its PBM binding z-score value. Item: "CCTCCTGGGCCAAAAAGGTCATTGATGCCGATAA"
4.5

Give its PBM binding z-score value. Item: "GATACAGGGTCAGCTAGAGGACAGAGTATGGAAA"
4.03

Give its PBM binding z-score value. Item: "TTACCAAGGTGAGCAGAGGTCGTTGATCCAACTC"
2.03

Give its PBM binding z-score value. Item: "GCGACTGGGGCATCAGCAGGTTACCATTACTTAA"
0.246

Give its PBM binding z-score value. Item: "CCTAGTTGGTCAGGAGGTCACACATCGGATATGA"
4.21

Give its PBM binding z-score value. Item: "AGAATGAGGTTACAAAAGATCAGGGAAACGCTTG"
2.44

Give its PBM binding z-score value. Item: "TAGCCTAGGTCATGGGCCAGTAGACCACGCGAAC"
3.68

Give its PBM binding z-score value. Item: "CGTCAAAGTTCAAGGTAACGGAACAGAAAGCAGC"
4.74

Give its PBM binding z-score value. Item: "GGAACGAGGACAAGTTGATAGCAGAGTTTGATGG"
0.0511

Give its PBM binding z-score value. Item: "TCGAGTAGATTACCAATGGGGCATTCAGCTTTCT"
-0.304

----------
- Test system: VDR homodimer (NR concentration 270 nM)
- measurement description: PBM binding z-score (relative to random genomic background probes); higher = stronger binding; sequences stand for … in GC…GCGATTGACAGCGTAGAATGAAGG
Can you tell me PBM binding z-score for the items I'm about to list?
Give a plain numeric answer without units written out.

Give its PBM binding z-score value. Item: "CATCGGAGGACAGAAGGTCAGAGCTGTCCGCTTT"
0.139

Give its PBM binding z-score value. Item: "CGTCCAAGGTTATAGGAGGTCAGTGAAGACAGAT"
2.1

Give its PBM binding z-score value. Item: "AGAATGAGGTTATTAAGATCAGGGGATTGCGGTC"
1.35

Give its PBM binding z-score value. Item: "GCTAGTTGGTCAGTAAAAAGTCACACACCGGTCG"
0.168

Give its PBM binding z-score value. Item: "ACTAGCAGGCCAAGTTTGGGTCGCTCAAACAAAG"
-0.503

Give its PBM binding z-score value. Item: "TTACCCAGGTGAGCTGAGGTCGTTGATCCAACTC"
2.27

Give its PBM binding z-score value. Item: "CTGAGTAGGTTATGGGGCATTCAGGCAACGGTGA"
-0.0687

Give its PBM binding z-score value. Item: "TAGCCTAGGTCAGATGGGGCCAGTATACGCTATA"
0.0236

Give its PBM binding z-score value. Item: "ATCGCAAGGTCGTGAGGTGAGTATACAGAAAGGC"
1.55

Give its PBM binding z-score value. Item: "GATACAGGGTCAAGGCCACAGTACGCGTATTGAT"
1.84

Give its PBM binding z-score value. Item: "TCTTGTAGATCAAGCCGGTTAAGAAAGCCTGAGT"
0.0355

Give its PBM binding z-score value. Item: "TAGCTTAGGTCATGCGGGCCAGTATAGTGTCGGC"
0.954
